Quick reference: Mouse 2 Erythema of the listed items.
tested on: atopic dermatitis-induced Nc/Nga mouse; test: SCORAD clinical skin score, DNFB-induced atopic dermatitis in Nc/Nga mouse; assay type: in vivo; design: key: 0 = no symptom, 1 = mild, 2 = moderate, 3 = severe; settings: Mouse 2; DNFB Nc/Nga; 0.1% topical day 15-21; graded per Example 4

| molecule | Mouse 2 Erythema |
| --- | --- |
| CCCCCCCCCCCCCCCC(=O)N[C@@H](C)C(=O)O [N-palmitoyl L-alanine, N-palmitoyl-L-alanine] | 2 |
| CCCCCCCCCCCCCCCCCC(=O)N[C@@H](Cc1c[nH]c2ccccc12)C(=O)O [N-stearyl-L-tryptophan, N-stearoyl-L-tryptophan] | 2 |
| CCC(=O)N[C@@H](Cc1c[nH]c2ccccc12)C(=O)O [N-propionyl L-tryptophan, N-propionyl-L-tryptophan] | 2 |
| CCCCC(=O)N[C@@H](Cc1c[nH]c2ccccc12)C(=O)O [N-pentanoyl L-tryptophan, N-pentanoyl-L-tryptophan] | 2 |
| CCCCCCCC/C=C\CCCCCCCC(=O)N[C@@H](Cc1c[nH]c2ccccc12)C(=O)O [N-oleoyl-L-tryptophan] | 1 |
| CCCCCCCCCCC(=O)N[C@@H](Cc1c[nH]c2ccccc12)C(=O)O [N-undecanoyl L-tryptophan, N-undecanoyl-L-tryptophan] | 2 |
| CCCCCCCCCCCCCCCC(=O)N[C@@H](Cc1c[nH]c2ccccc12)C(=O)O [N-palmitoyl-L-tryptophan] | 2 |

* * *

system: atopic dermatitis-induced Balb/c mouse; assay: SCORAD clinical skin score, DNFB-induced atopic dermatitis in Balb/c mouse; format: in vivo; details: Mouse 3; DNFB Balb/c; 0.1% topical day 22-28; grade 0-3
endpoint: Mouse 3 Eschar

| compound | result |
| --- | --- |
| CC(=O)N[C@@H](CCCNC(=N)N)C(=O)O [N-acetyl-L-arginine] | 1 |
| CC(=O)N[C@@H](CC(N)=O)C(=O)O [N-acetyl-L-asparagine] | 3 |
| CC(=O)N[C@H](C(=O)O)C(C)C [N-acetyl-L-valine] | 2 |
| CC(=O)N[C@@H](CCC(=O)O)C(=O)O [N-acetyl-L-glutamic acid] | 2 |
| CC(=O)N[C@@H](Cc1c[nH]c2ccccc12)C(=O)O [N-acetyl-L-tryptophan] | 2 |
| CC(=O)N[C@@H](Cc1ccccc1)C(=O)O [N-acetyl-L-phenylalanme] | 2 |
| CC(=O)N[C@@H](Cc1c[nH]cn1)C(=O)O [N-acetyl-L-histidine] | 2 |
| CC(=O)N[C@H](C(=O)O)[C@@H](C)O [N-acetyl-L-threonine] | 2 |
| CC(=O)N[C@@H](CS)C(=O)O [N-acetyl-L-cysteine, reference compound] | 2 |
| CC[C@H](C)[C@H](NC(C)=O)C(=O)O [N-acetyl-L-isoleucine] | 2 |
| CC(=O)N[C@@H](CO)C(=O)O [N-acetyl-L-serine] | 2 |
| CC(=O)NCC(=O)O [N-acetyl-L-glycine] | 2 |
| CC(=O)N[C@@H](CC(=O)O)C(=O)O [N-acetyl-L-aspartic acid] | 2 |
| CC(=O)N[C@@H](C)C(=O)O [N-acetyl-L-alanine] | 1 |
| CC(=O)N[C@@H](CCCCN)C(=O)O [N-acetyl-L-Lysine] | 2 |

* * *

tested on: atopic dermatitis-induced Nc/Nga mouse; test: SCORAD clinical skin score, DNFB-induced atopic dermatitis in Nc/Nga mouse; type: in vivo; design: key: 0 = no symptom, 1 = mild, 2 = moderate, 3 = severe; conditions: Mouse 3; DNFB Nc/Nga; 0.1% topical day 15-21; graded per Example 4

| compound | Mouse 3 Abrasion |
| --- | --- |
| CCCCCCCCCCCCCCCCCC(=O)N[C@@H](Cc1c[nH]c2ccccc12)C(=O)O [N-stearyl-L-tryptophan, N-stearoyl-L-tryptophan] | 2 |
| CCCCC(=O)N[C@@H](Cc1c[nH]c2ccccc12)C(=O)O [N-pentanoyl L-tryptophan, N-pentanoyl-L-tryptophan] | 2 |
| CCCCCCCCCCCCCCCC(=O)N[C@@H](Cc1c[nH]c2ccccc12)C(=O)O [N-palmitoyl-L-tryptophan] | 1 |
| CCCC(=O)N[C@@H](Cc1c[nH]c2ccccc12)C(=O)O [N-butyryl L-tryptophan, N-butyryl-L-tryptophan] | 1 |
| CCC(=O)N[C@@H](Cc1c[nH]c2ccccc12)C(=O)O [N-propionyl L-tryptophan, N-propionyl-L-tryptophan] | 2 |
| CC(=O)N[C@@H](CCC(=O)N[C@@H](C)C(=O)O)C(=O)O [N-acetyly-glutammyl-L-alanine, N-acetyl-γ-glutammyl-L-alanine] | 1 |
| CCCCCCCCCCC(=O)N[C@@H](Cc1c[nH]c2ccccc12)C(=O)O [N-undecanoyl L-tryptophan, N-undecanoyl-L-tryptophan] | 1 |
| CCCCCCCC/C=C\CCCCCCCC(=O)N[C@@H](Cc1c[nH]c2ccccc12)C(=O)O [N-oleoyl-L-tryptophan] | 2 |
| CCCCCCCCCCCCCCCC(=O)N[C@@H](C)C(=O)O [N-palmitoyl L-alanine, N-palmitoyl-L-alanine] | 2 |
| CCCCCCCC/C=C\CCCCCCCCCCCC(=O)N[C@@H](Cc1c[nH]c2ccccc12)C(=O)O [N-(Z)-docos-13-enoyl L-tryptophan, N—(Z)-docos-13-enoyl-L-tryptophan] | 1 |

* * *

system: atopic dermatitis-induced Nc/Nga mouse; assay: SCORAD clinical skin score, DNFB-induced atopic dermatitis in Nc/Nga mouse; type: in vivo; design: key: sum of individual symptom scores, each graded 0-3; details: Mouse 1; DNFB Nc/Nga; 0.1% topical day 15-21; sum of individual scores

| molecule | test_target | Mouse 1 Sum |
| --- | --- | --- |
| CCCCCCCC/C=C\CCCCCCCCCCCC(=O)N[C@@H](Cc1c[nH]c2ccccc12)C(=O)O [N-(Z)-docos-13-enoyl L-tryptophan, N—(Z)-docos-13-enoyl-L-tryptophan] | atopic dermatitis-induced Nc/Nga mouse | 5 |
| CCC(=O)N[C@@H](Cc1c[nH]c2ccccc12)C(=O)O | atopic dermatitis-induced Nc/Nga mouse | 12 |
| CCCCCCCCCCCCCCCC(=O)N[C@@H](C)C(=O)O | atopic dermatitis-induced Nc/Nga mouse | 7 |
| CCCCCCCCCCCCCCCC(=O)N[C@@H](Cc1c[nH]c2ccccc12)C(=O)O | atopic dermatitis-induced Nc/Nga mouse | 6 |

* * *

system: atopic dermatitis-induced Nc/Nga mouse; assay: SCORAD clinical skin score, DNFB-induced atopic dermatitis in Nc/Nga mouse; format: in vivo; design: key: sum of individual symptom scores, each graded 0-3; details: mean of 3 mice; DNFB Nc/Nga; 0.1% topical day 15-21
Quick reference: Mean (of Sum, SCORAD) of the listed items.

| molecule | Mean (of Sum, SCORAD) |
| --- | --- |
| CCCCCCCCCCCCCCCC(=O)N[C@@H](Cc1c[nH]c2ccccc12)C(=O)O | 8.7 |
| CCCCCCCCCCC(=O)N[C@@H](Cc1c[nH]c2ccccc12)C(=O)O | 9.3 |
| CCCCCCCC/C=C\CCCCCCCCCCCC(=O)N[C@@H](Cc1c[nH]c2ccccc12)C(=O)O [N-(Z)-docos-13-enoyl L-tryptophan, N—(Z)-docos-13-enoyl-L-tryptophan] | 7 |

* * *

tested on: atopic dermatitis-induced Balb/c mouse; assay: SCORAD clinical skin score, DNFB-induced atopic dermatitis in Balb/c mouse; format: in vivo; conditions: Mouse 1; DNFB Balb/c; 0.1% topical day 22-28; grade 0-3

| mol | Mouse 1 Eschar |
| --- | --- |
| CC(=O)N[C@@H](CCCNC(=N)N)C(=O)O | 1 |
| CC(=O)N1CCC[C@H]1C(=O)O | 1 |
| CC(=O)N[C@@H](CCC(=O)O)C(=O)O | 2 |
| CC(=O)N[C@@H](CO)C(=O)O | 2 |
| CC(=O)N[C@@H](Cc1c[nH]c2ccccc12)C(=O)O | 1 |
| CC(=O)N[C@@H](CC(C)C)C(=O)O | 2 |
| CC(=O)N[C@@H](Cc1ccc(O)cc1)C(=O)O | 3 |
| CC(=O)N[C@@H](CCC(N)=O)C(=O)O | 2 |
| CC(=O)N[C@@H](Cc1ccccc1)C(=O)O | 1 |
| CC(=O)NCC(=O)O | 2 |

* * *

Quick reference: Mouse 2 Lichenification of the listed items.
test system: atopic dermatitis-induced Balb/c mouse; assay: SCORAD clinical skin score, DNFB-induced atopic dermatitis in Balb/c mouse; assay type: in vivo; conditions: Mouse 2; DNFB Balb/c; 0.1% topical day 22-28; grade 0-3

| molecule | test_target | Mouse 2 Lichenification |
| --- | --- | --- |
| CSCC[C@H](NC(C)=O)C(=O)O [N-acetyl-L-methionine] | atopic dermatitis-induced Balb/c mouse | 3 |
| CC(=O)N[C@@H](CCC(N)=O)C(=O)O [N-acetyl-L-glutamine] | atopic dermatitis-induced Balb/c mouse | 2 |
| CC(=O)N[C@@H](CO)C(=O)O [N-acetyl-L-serine] | atopic dermatitis-induced Balb/c mouse | 3 |
| CC(=O)N[C@@H](CC(=O)O)C(=O)O [N-acetyl-L-aspartic acid] | atopic dermatitis-induced Balb/c mouse | 2 |
| CC(=O)N1CCC[C@H]1C(=O)O [N-acetyl-L-proline] | atopic dermatitis-induced Balb/c mouse | 2 |
| CC(=O)N[C@@H](CC(N)=O)C(=O)O [N-acetyl-L-asparagine] | atopic dermatitis-induced Balb/c mouse | 3 |
| CC(=O)N[C@@H](CCCCN)C(=O)O [N-acetyl-L-Lysine] | atopic dermatitis-induced Balb/c mouse | 3 |
| CC(=O)N[C@@H](CC(C)C)C(=O)O [N-acetyl-L-leucine] | atopic dermatitis-induced Balb/c mouse | 3 |
| CC(=O)N[C@H](C(=O)O)[C@@H](C)O [N-acetyl-L-threonine] | atopic dermatitis-induced Balb/c mouse | 1 |
| CC(=O)N[C@@H](CCCNC(=N)N)C(=O)O [N-acetyl-L-arginine] | atopic dermatitis-induced Balb/c mouse | 1 |

The reported numbers originate from patent US12370161B2.
